src = BindingDB's records for patent US20240116892

Target: Tyrosine-protein kinase JAK2 [Y1007F,Y1008F] (Homo sapiens, UniProt O60674, Y1007F/Y1008F)
Sequence (O60674 whole entry Y1007F/Y1008F): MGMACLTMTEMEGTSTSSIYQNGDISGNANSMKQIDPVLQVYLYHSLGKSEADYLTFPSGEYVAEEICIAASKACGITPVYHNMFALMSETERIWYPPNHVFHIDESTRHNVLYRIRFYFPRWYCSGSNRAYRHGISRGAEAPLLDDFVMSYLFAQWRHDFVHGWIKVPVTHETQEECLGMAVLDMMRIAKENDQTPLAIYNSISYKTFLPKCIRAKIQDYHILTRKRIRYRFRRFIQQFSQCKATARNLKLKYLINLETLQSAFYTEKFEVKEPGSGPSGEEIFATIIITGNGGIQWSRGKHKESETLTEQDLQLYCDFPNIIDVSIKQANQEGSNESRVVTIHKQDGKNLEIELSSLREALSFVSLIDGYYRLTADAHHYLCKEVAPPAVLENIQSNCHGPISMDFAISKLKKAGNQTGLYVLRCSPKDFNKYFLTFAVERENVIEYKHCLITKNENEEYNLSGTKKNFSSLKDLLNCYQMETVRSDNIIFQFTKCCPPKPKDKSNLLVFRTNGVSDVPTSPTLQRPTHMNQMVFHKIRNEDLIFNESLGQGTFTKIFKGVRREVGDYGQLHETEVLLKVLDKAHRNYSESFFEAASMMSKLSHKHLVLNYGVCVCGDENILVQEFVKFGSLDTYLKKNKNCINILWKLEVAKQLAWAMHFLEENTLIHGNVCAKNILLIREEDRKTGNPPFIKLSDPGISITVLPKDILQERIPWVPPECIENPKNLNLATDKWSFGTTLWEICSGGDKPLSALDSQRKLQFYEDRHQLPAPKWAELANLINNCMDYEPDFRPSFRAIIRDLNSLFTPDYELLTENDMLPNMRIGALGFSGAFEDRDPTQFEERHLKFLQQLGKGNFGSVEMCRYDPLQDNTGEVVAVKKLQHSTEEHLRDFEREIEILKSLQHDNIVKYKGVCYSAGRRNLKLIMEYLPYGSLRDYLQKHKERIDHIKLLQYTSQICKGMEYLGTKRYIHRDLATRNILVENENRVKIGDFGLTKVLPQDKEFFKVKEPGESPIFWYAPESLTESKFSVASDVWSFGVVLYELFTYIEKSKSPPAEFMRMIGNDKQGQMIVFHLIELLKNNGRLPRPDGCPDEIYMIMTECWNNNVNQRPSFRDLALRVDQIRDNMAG
Experiment: JAK2 Binding Assay
Each entry below carries its recorded Kd.

Here are 2 molecules together with their reported answers.
{"Molecular string": "CN(C(=O)Nc1cc(C(F)(F)F)cn(C)c1=O)C12CC(c3cnc4[nH]ccc4c3)(C1)C2", "Result": "< 10 nM"}
{"Molecular string": "Cn1cc(C(F)(F)F)cc(NC(=O)N2CCO[C@@H]3CN(c4cnc(NC(=O)C5CC5)cn4)CC[C@H]32)c1=O", "Result": "< 10 nM"}

// below: Kd requested for another molecule
Identify measured Kd associated with `CN(C(=O)Nc1cc(C(F)(F)F)cn(C)c1=O)[C@@H]1CCN(c2cnc3[nH]ncc3c2)C[C@@H]1F`
< 10 nM
